Source of measurements: PubChem BioAssay (NCI)

system: ACHN renal; experiment: NCI tumour cell line growth inhibition, 48 h
Criterion: TGI meeting or surpassing 30 µM. Met: TRUE. Not met: FALSE.

Consider the following illustrative entries.
| Compound | Group |
| --- | --- |
| CC1=C(C(=O)Nc2cccc(Cl)c2)C(c2ccc([N+](=O)[O-])cc2)C(C(=O)Nc2cccc(Cl)c2)=C(C)N1 | TRUE |
| C=CC(C)(C)C(=C)C(=O)N(C)c1ccccc1I | TRUE |
| O=C1C=C[C@@]23C[C@@H](Nc4c(O)c5c6c(c42)=NCCC=6C=N5)SC3=C1 | FALSE |
| COC1(O)C(=O)c2ccccc2OC1(OC)c1ccccc1 (centres undefined) | TRUE |
| C/C(=N\NC(=S)NC1CCCC1)c1ccccn1 | FALSE |
| O=C1CC(c2ccc3c(c2)OCO3)Nc2cc3c(cc21)OCO3 (centres undefined) | TRUE |
| CCCCNc1c(CN)cnc2cc(Cl)ccc12 | TRUE |
| O=C(/C=C/c1ccc(Cl)c(Cl)c1)c1ccc(F)cc1 | TRUE |

Exercise: Please check the record O=C1C=CC(=O)c2c(NCC3CC3)ccc(NCC3CC3)c21 and state if its TGI is at or above 30 µM.
Solution: TRUE

Exercise: # check: TGI of Cc1cc(OCc2nn(CN3CCN(C)CC3)c(=S)n2/N=C/c2ccc(-c3ccc(Cl)cc3Cl)o2)ccc1Cl is greater than or equal to 30 µM
Solution: TRUE

Exercise: Textbook exercise: given the entry C(=C\c1nccs1)/c1cccc(/C=C/c2nccs2)n1 , state whether its TGI is greater than or equal to 30 µM.
Solution: TRUE
